Each recorded value in this set is attributed to paper PMC12207590.

Target or system: MATE1 (Homo sapiens, UniProt Q96FL8)
Sequence (Q96FL8 1-570): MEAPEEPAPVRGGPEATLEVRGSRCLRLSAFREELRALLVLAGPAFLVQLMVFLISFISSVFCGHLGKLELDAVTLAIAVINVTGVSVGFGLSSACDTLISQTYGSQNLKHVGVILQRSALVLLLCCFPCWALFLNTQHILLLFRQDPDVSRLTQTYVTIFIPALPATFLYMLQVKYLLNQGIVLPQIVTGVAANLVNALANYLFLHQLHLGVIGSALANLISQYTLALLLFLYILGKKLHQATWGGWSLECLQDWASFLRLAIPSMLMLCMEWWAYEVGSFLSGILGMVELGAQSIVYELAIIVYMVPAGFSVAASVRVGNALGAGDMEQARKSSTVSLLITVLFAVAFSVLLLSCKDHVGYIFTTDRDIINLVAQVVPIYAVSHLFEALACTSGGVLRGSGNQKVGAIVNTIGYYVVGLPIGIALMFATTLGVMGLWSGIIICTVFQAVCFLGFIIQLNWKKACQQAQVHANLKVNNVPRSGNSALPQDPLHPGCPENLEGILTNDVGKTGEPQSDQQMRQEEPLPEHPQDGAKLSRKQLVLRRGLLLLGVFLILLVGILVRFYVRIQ
Experiment: in vitro
Cond: other cell line, pH 7.4
Property name: microsomal CLint (µL/min/mg)
Field format: number, assumed µL/min/mg, no unit text.

For the compound shown here, c1c2c(cc3c1OCO3)-c1cc3ccc4c(c3c[n+]1CC2)OCO4 , give the reported microsomal CLint. 145
